- experimental_target: Metabotropic glutamate receptor 8 (Rattus norvegicus)
- method: mGluR8 Gi/Go-coupled signaling modulation – cell-based, rat, thallium flux, HTS, primary screen (AID 488969)
- assay_setup: HEK293 rat mGluR8, GIRK (G protein-gated inwardly rectifying potassium channel) thallium flux, FluoZin2; at 10 µM; stronger effect = higher value; submaximal glutamate (EC20) added with thallium
In all, about 110,000 compounds were measured (“z-score”: median about -0.1, highest 2% from about 2 on). For the sample, the highest values were picked, then their nearest neighbours and some compounds at random.
property: z-score
Write no unit; give the number alone.

>  <compound>
Cc1cs/c(=N\N=C\c2cccc([N+](=O)[O-])c2)n1Cc1ccco1

>  <z-score>
5.13

$$$$
>  <compound>
COC(=O)c1cccc(NC(=S)NCc2ccc(Cl)cc2)c1

>  <z-score>
0.53

$$$$
>  <compound>
COC(=O)c1ccc(Cl)c(NC(=O)CN2CCOCC2)c1

>  <z-score>
0.185

$$$$
>  <compound>
Nc1nc(CN2CCN(Cc3ccccc3)CC2)nc(Nc2ccccc2)n1

>  <z-score>
0.26

$$$$
>  <compound>
Cc1cccc(N2C(=O)CS/C2=N\NC(=O)c2ccc(Br)cc2)c1C

>  <z-score>
1.16

$$$$
>  <compound>
COC(=O)c1ccc(Cl)c(NC(=O)CN(c2ccc(OC)c(OC)c2)S(C)(=O)=O)c1

>  <z-score>
2.1

$$$$

Which measured z-score belongs to COC(=O)c1sccc1NC(=O)COc1ccccc1Cl , tested on Metabotropic glutamate receptor 8 (Rattus norvegicus)?
-0.212

Cool, now Cc1ccc(NC(=O)NC(=S)NC(=O)c2ccccc2)cc1
1.68

Note, next up: CC(=O)Nc1cccc(C(=O)OC(C(=O)c2ccc(C)cc2)c2ccccc2)c1 (stereo not drawn)
0.508

Repeat with COC(=O)c1sccc1NC(=O)CSc1cccc(Cl)c1Cl
-0.0544
